Hey, just so you know, these numbers are from ChEMBL document CHEMBL5726505.

# IC50 listing for each entry below
Target: Interleukin-1 receptor-associated kinase 4 (Homo sapiens, UniProt Q9NWZ3)
Sequence (Q9NWZ3 whole entry): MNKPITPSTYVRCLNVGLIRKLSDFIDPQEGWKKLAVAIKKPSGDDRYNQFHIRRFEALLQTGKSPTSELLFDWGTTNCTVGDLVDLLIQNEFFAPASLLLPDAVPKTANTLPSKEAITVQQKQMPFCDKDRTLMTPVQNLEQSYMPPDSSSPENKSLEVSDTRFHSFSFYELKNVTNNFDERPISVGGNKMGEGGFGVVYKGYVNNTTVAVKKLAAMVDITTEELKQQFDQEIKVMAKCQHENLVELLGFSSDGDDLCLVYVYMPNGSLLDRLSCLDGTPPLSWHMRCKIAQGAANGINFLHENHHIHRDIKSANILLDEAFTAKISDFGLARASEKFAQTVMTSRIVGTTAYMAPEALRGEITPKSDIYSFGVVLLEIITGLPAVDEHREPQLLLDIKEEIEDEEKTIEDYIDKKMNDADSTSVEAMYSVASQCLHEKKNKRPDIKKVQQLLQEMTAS
Assay: Enzymatic Assay: IRAK4 is a human purified recombinant enzyme (His-TEV-[…] ([…]). IRAK4 hydrolyses ATP, autophosphorylates and phosphorylates a Serine/Threonine generic peptidic substrate (STK: 61ST1BLC from CisBio International based in Bagnols/Cèze FR).Measurement of IRAK-4 inhibition was performed in streptavidin coated 384well FlashPlate (PerkinElmer #SMP410A). His-TEV-IRAK4 (20 ng/well), ATP (2 μM, [33P]ATP 0.25 µCi/well), STK1-biotin peptide (300 nM) and compounds in DMSO (range of concentrations from 20 µM to 1 nM) or controls (2% DMSO) were incubated for 3 hours at 30° C. in assay buffer: Hepes pH7.0 50 mM, Fatty acid-free BSA 0.1%, Dithiothreitol DTT 2 mM, MgCl2 10 mM, EGTA 0.5 mM, Tween-20 0.01%, MnCl2 5 mM.

Below are worked cases with known answers.
Cn1cc(-c2cccc(-c3ncc(-c4cnn(C)c4)c(NCC4CCCN(C(=O)OC(C)(C)C)C4)n3)c2)cn1 (centres undefined) ... > 5000 nM
Cn1cc(-c2cccc(-c3ncc(-c4cnn(C)c4)c(N[C@H]4CCN(S(C)(=O)=O)C4)n3)c2)cn1 ... < 100 nM
Cn1cc(-c2cccc(-c3ncc(-c4ccn(C)n4)c(O[C@@H]4CCC[C@@H](N)[C@@H]4O)n3)c2)cn1 ... < 100 nM

// switching to the query molecule
Given "Cc1nnc(-c2cnc(-c3cccc(-c4cnn(C)c4)c3)nc2NC2CCN(S(C)(=O)=O)CC2)s1" , state its recorded IC50.
< 100 nM
